Target: Neu5Ac(a2-6)Gal(b1-4)GlcNAc(b1-2)Man(a1-3)[Neu5Ac(a2-6)Gal(b1-4)GlcNAc(b1-2)Man(a1-6)]Man(b1-4)GlcNAc(b1-4)[Fuc(a1-6)]GlcNAc
Assay: glycan array binding signal (z-score within array); higher = stronger binding
Conditions: glycan notation: IUPAC condensed, linker removed
The full list was thinned out, with the strongest signals kept by preference.
Class field: derived from glycan array binding signal (z-score); ranges category 1: < -0.1; category 2: ≥ -0.1 and < 3; category 3: ≥ 3

The following binders have reported results that may help.
binder	class.name
DC-Sign-R (Homo sapiens), Q9H2X3 (protein) MSDSKEPRVQQLGLLEEDPTTSGIRLFPRDFQFQQIHGHKSSTGCLGHGALVLQLLSFMLLAGVLVAILVQVSKVPSSLSQEQSEQDAIYQNLTQLKAAVGELSEKSKLQEIYQELTQLKAAVGELPEKSKLQEIYQELTRLKAAVGELPEKSKLQEIYQELTRLKAAVGELPEKSKLQEIYQELTRLKAAVGELPEKSKLQEIYQELTELKAAVGELPEKSKLQEIYQELTQLKAAVGELPDQSKQQQIYQELTDLKTAFERLCRHCPKDWTFFQGNCYFMSNSQRNWHDSVTACQEVRAQLVVIKTAEEQNFLQLQTSRSNRFSWMGLSDLNQEGTWQWVDGSPLSPSFQRYWNSGEPNNSGNEDCAEFSGSGWNDNRCDVDNYWICKKPAACFRDE	category 1
Mincle (Bos taurus) (protein) MNSSTSPASQTERRCFSFQLFSWAIAGTSILLLSACFITRCVVTYSIFQLCDEKKFQPPGDSMELSCYNDGSGSVKNCCPLKWFHFQSSCYLFSPDTMSWRASLKNCSSMGAHLVVINTQEEQEFLYYTKPRKKEFYIGLTDQVTEGQWQWVDGTPFTKSLSFWDAGEPNNLVIVEDCATIRDSSNPRQNWNDVPCFFNMFRVCEMPERKI	category 2
LSL-150 (Laetiporus sulphureus), Q7Z8V1 (protein) MTDIYIPPEGLYFRLLGFASRQVIFARNSPSPDVGLSPVNDQATDQYFSLIYGTGEHAGLYAIKSKATGKVLFSRRPAEPYVGQIDGDGRYPDNWFKIEPGKTYLSKYFRLVQPSTGTALVSRTHLQPYFWNHPQTEVFDDQYFTFLFEDHHHHHH	category 1
Ovorubin (Pomacea canaliculata), J7I2T6 (protein) MFVATSLLLAIATLVVRASPHNYLIMDIEPPKSVSERDILNLLSPLQVKHSFRVTGSTRLLIVIRLDAQSYEKLDEITVPGKVEVIPAVNMADTMERCGVSWPRVELTDDNVTLFESESTLTDVTKEQLKAMLIGYGEHMSGLLQAHRFEYYQAAGATPHRHFVFVNSVPDEIEVFGREGVDIWGGPGEFVVKPQYVTRI	category 1
LlpB (Pseudomonas fluorescens) (protein) MGSSHHHHHHSSGLVPRGSHMASSGFRIILFNSANNGTAILPPRNCLVAGQYLESPSKRYKLILEADGNLRLYDNGVPIWVADSSVPYTYVDNRPNTNLVTCFYMQGSAFLVDRVGSRTWATIGDWIDGAADRAYLQVQDDGNVVVVDGVPRWARFGFTPAALPNRGVFYPDHGTGPLPSFPVWSWTF	category 3
ERGIC1-EDTA (Homo sapiens), Q969X5 (protein) MKFLVNVALVFMVVYISYIYAAAHMHHHHHHDYDIPTTENLYFQGSEVVNELYVDDPDKDSGGKIDVSLNISLPNLHCELVGLDIQDEMGRHEVGHIDNSMKIPLNNGAGCRFEGQFSINKVPGNFHVSTHSATAQPQNPDMTHVIHKLSFGDTLQVQNIHGAFNALGGADRLTSNPLASHDYILKIVPTVYEDKSGKQRYSYQYTVANKEYVAYSHTGRIIPAIWFRYDLSPITVKYTE	category 2
Tamarinin (protein) CDDSARAGNIVVYWGQGGSDNSEGSLKEACKSGHYNMIVLQQLIVYDDGRDPDLNLGAHCSDCTKLEEQIKYCQNKDIKILLQIGQVVPTQEDVKDVTKNLSEYLLKNFFSGKSGPLGEVYLNGIDIASVPEGNNLKFDELVEALNDSSTERRIYLSASPLCVYPDYYLNKAIQTEKLDFLFVQFFYQNPCIYTEGNPENLFEAMKTWTKNVPESMIFMALPATPNLDGYIPPRVLNKEILPAVSEASNFAGVMIFDRYFDRFRKYSSKIK	category 1
HML-Native (Hypnea musciformis), P84871 (protein) QKFCTLDIAPVCCQIVIGGGMYTAGNACMCEGFVSGVGRCENPKECPCTREAQIPSCCSSRWGLVSVTGKCACDCLGGTVAFPEPCPSPY	category 3

Looking at SP16663B-bot-321-25-321 (Bacteroides ovatus) (protein) DDDDEVTMNSKFYLSTKVFPVDSYEASLSVILKDNSVVVNELQPNYRFVACATERLSKDVKITADSDDNLVSAYNKANDTEYNILPAENYSFTNKTVTIENGESVSGDSIKIELLNVGSLTTEGGYLLPVTISSIEGNNLDALSSNRGVVYLKIQNIHVNVESGQPAEGTLIADRSGWTVKVAPTTRGDAKNLIDGTNSDVARDGGAEYWLTVDIGKVQTLTGIRNKCYASSYSPTAVEVFTSSDGAKWKSIGAVTISKSGTQYIKFSKAVETRYLKYYVKQGPNTVSLTEFDLYAK , which class would you pick? category 2

Looking at BTL (Bryothamnion triquetrum) (protein) ADPICGSSGYSCTTPAILTPKSPGSFPSGYSKVIVTGVGGSYSVYIHRPDGFKVYKASEGGCASFGSYSGGGNSEVGKYGSGGTVVAVACK , which class would you pick? category 3
